# Assay system: T1, human LAP-TGFB1 Fc fusion (human)
# T1 construct: also called human LAP-TGFβ1-Fc; human LAP-TGFβ-Fc isoform 1
# T1 sequence (chain, as listed by the source limits assumed): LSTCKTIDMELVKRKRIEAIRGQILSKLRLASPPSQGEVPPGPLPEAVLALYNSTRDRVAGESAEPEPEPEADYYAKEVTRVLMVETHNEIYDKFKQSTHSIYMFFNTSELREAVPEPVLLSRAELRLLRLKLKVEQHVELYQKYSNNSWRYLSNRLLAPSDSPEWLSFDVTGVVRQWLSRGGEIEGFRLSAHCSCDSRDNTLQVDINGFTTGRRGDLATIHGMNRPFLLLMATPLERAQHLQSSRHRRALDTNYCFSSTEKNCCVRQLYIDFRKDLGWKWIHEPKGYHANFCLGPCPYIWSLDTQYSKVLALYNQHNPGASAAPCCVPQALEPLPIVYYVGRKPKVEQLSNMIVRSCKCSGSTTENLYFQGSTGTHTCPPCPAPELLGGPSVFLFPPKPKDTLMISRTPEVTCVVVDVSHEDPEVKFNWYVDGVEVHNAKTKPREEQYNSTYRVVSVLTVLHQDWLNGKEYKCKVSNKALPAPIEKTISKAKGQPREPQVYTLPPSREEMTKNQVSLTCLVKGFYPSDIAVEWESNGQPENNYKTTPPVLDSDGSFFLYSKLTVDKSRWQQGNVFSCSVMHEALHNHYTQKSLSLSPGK
# Test protocol: BLI off-rate screen
Known log10 Binding response of a selection of binders
Use the decimal logarithm of Binding response (nm).

Some binders with recorded log10 Binding response:
{"Binder": "VL T51Y (48BIT) (Fab, V domains shown) VH: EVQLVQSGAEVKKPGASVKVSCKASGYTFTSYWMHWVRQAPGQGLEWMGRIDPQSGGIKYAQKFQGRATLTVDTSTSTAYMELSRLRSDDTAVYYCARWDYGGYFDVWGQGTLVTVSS VL: DIQMTQSPSSLSASVGDRVTITCRASQDITNYLNWYQQKPGKAVKLLIYYYSRLHSGVPSRFSGSGSGTDYTLTISSLQPEDFATYFCQQGDTLPWTFGQGTKLEIKR", "log10 Binding response": -0.69}
{"Binder": "VL H55Y (52BIT) (Fab, V domains shown) VH: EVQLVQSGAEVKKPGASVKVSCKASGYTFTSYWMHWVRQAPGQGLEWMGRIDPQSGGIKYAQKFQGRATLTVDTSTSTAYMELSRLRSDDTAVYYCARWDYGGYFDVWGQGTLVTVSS VL: DIQMTQSPSSLSASVGDRVTITCRASQDITNYLNWYQQKPGKAVKLLIYYTSRLYSGVPSRFSGSGSGTDYTLTISSLQPEDFATYFCQQGDTLPWTFGQGTKLEIKR", "log10 Binding response": -0.58}

Data request: Returns the measured log10 Binding response for the input binder. Input: VH G99Y (66BIT) (Fab, V domains shown) VH: EVQLVQSGAEVKKPGASVKVSCKASGYTFTSYWMHWVRQAPGQGLEWMGRIDPQSGGIKYAQKFQGRATLTVDTSTSTAYMELSRLRSDDTAVYYCARWDYGYYFDVWGQGTLVTVSS VL: DIQMTQSPSSLSASVGDRVTITCRASQDITNYLNWYQQKPGKAVKLLIYYTSRLHSGVPSRFSGSGSGTDYTLTISSLQPEDFATYFCQQGDTLPWTFGQGTKLEIKR
Data returned: -1.26

Data request: Returns the measured log10 Binding response for the input binder. Input: VH M34Y (72BIT) (Fab, V domains shown) VH: EVQLVQSGAEVKKPGASVKVSCKASGYTFTSYWYHWVRQAPGQGLEWMGRIDPQSGGIKYAQKFQGRATLTVDTSTSTAYMELSRLRSDDTAVYYCARWDYGGYFDVWGQGTLVTVSS VL: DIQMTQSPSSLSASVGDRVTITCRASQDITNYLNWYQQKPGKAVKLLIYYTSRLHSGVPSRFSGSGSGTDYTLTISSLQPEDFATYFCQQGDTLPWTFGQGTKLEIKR
Data returned: -0.21

Data request: Returns the measured log10 Binding response for the input binder. Input: VH R50Y (75BIT) (Fab, V domains shown, also called VH RSOY (75BIT)) VH: EVQLVQSGAEVKKPGASVKVSCKASGYTFTSYWMHWVRQAPGQGLEWMGYIDPQSGGIKYAQKFQGRATLTVDTSTSTAYMELSRLRSDDTAVYYCARWDYGGYFDVWGQGTLVTVSS VL: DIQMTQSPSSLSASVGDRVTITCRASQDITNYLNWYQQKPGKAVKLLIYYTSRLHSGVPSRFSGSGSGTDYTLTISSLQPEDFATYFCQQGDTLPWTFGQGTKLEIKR
Data returned: -0.49
